Source listed as a melting point compilation (Tetko et al.; mined from patent text by program, amines drawn as free bases though some values may be those of a salt).

Experimental Endpoint: melting point

For orientation, consider the following solved cases.
CN(C)CCNc1ccnc2cc(C(F)(F)F)ccc12
110 to 113 °C
COC(=O)/C(=C/C1CCCCCC1)c1ccc(S(C)(=O)=O)c(C(F)(F)F)c1
151 to 156 °C
CSc1cccc(COCCCO)c1NC(=O)CC1c2ccccc2Oc2ccccc21
207 to 208 °C
COc1cc(Nc2c(C#N)cnc3cc4cc(OCCN5CCN(C)CC5)c(OC)cc4cc23)c(Cl)cc1F
197 to 205 °C
O=C(NC1CCC(CCN2CCN(c3nccc4c3OCC4)CC2)CC1)c1ccc(N2CCS(=O)(=O)CC2)cc1 (stereo not given)
260 °C
COc1cc2cc(CO)c(CO)c(C)c2cc1OC
180 to 182 °C
O=C(O)CCCCCCCc1nn(-c2ccccc2)c2c1CCC2
55 to 57 °C
Cc1[nH]c(/C=C2\C(=O)Nc3ccc(F)cc32)c(C)c1C(=O)NCCCCCC(=O)NO
210 °C

// query Return value of melting point for input O=C1N(Cc2ccc3nonc3c2)c2ccccc2C12COc1cc3c(cc12)OCCO3 (stereo not given) , no commentary.
// result 164 to 166 °C

// query Return value of melting point for input CCc1nc(=O)[nH]c2cc(OC)c(OC)cc12 , no commentary.
// result 263 to 265 °C
